- tested system: FLAG tagged human Ang2 (Alexis Biochemicals) (human) (UniProt O15123)
- Sequence (O15123 19-496): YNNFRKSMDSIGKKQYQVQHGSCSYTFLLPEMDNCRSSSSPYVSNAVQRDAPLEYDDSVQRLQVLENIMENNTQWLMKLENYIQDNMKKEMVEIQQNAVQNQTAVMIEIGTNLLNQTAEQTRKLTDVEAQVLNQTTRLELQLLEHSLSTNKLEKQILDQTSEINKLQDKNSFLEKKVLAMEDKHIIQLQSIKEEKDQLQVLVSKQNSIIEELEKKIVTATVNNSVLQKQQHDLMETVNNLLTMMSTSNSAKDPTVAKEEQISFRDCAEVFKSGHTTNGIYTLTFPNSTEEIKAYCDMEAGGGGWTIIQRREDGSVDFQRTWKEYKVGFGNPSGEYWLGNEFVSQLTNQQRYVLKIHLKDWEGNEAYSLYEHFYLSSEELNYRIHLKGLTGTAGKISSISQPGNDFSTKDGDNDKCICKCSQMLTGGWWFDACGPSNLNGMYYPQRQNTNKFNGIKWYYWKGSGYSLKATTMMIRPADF
- method description: competition ELISA, FLAG-hAng2 (0.02 nM) on coated hTie2/Fc
pIC50: −log10 of the molar value.
Threshold rule: pIC50 greater than or equal to 9 is Met; below that, Not met.

Exercise: I'd appreciate it if you could say whether VHH 13A02 (VHH, not shown: small tags and cut ends) VHH: EVQLVESGGGLVQAGGSLRLSCAASGGTFSSYSMGWFRQAPGKEREFIAAINWNGDSTYYEDSVKGRFTVSRDNAKNTVYLQMNSLKPEDTAVYYCAATGWGRAYEQAYEYDVWGQGTQVTVSS has pIC50 at least equal to 9.
Key: Not met

Exercise: Determine whether measured pIC50 meets or exceeds 9 for VHH 32H10 (VHH, not shown: small tags and cut ends) VHH: EVQLVESGGGLVQAGGSLRLSCAASGFDFEDYDMGWFRQAPGKEREGVSYISSSDGSTYYTDSVKGRFTISSDNAKNTVYLQMNSLIPEDTAVYYCAARPWTRRVYGSSWLARSLDEYEYDYWGQGTQVTVSS
Key: Not met

Exercise: Please indicate if the recorded pIC50 for VHH 37A09 (VHH, not shown: small tags and cut ends) VHH: EVQLMESGGGLVQPGGSLRLSCAASGFALDYYAIGWFRQVPGKEREGVSCISSSDGITYYVDSVKGRFTISRDNAKNTVYLQMNSLKPGDTAVYYCATDSGGYIDYDCMGLGYDYWGQGTQVTVSS meets or exceeds 9.
Key: Met

Exercise: Can VHH 7G08 (VHH, not shown: small tags and cut ends) VHH: EVQLVESGGGLVQPGGSLRLSCAASGFALDYYAIGWFRQVPGKEREGVSCISSSDGITYYVDSVKGRFTISRDNAKNTVYLQMNSLKPEDTAVYYCATDSGGYIDYDCMGLGYDYWGQGTQVTVSS be said to have pIC50 at or above 9?
Key: Met
